Reference for the values: patent US12240838B2

target: BTK (Homo sapiens (Human), UniProt Q06187); experiment: In Vitro PD Assay in Human Whole Blood (pBTK assay); format: cell-based; conditions: 37° C. for 30 min, 50% inhibition of ECL signal
Sequence (Q06187 whole entry): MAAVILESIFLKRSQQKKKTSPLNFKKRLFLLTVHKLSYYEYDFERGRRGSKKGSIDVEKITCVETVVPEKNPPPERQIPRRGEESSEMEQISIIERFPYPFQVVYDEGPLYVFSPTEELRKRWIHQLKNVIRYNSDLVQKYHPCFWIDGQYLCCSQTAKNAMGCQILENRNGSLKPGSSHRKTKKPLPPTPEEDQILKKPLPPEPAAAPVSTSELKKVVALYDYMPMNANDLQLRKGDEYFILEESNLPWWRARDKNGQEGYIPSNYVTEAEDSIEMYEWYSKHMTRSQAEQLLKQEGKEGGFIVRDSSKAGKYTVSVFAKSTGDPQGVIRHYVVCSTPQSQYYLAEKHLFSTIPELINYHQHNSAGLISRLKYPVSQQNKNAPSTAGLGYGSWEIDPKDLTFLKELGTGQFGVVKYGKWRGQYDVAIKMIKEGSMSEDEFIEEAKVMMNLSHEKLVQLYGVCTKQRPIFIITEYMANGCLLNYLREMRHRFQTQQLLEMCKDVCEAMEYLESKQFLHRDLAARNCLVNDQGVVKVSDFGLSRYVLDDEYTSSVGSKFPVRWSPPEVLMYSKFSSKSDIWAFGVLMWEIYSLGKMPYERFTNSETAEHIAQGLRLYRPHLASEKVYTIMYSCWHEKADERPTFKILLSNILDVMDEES
pIC50: −log10 of the molar value.
Below, each entry is listed alongside its reported pIC50.

- smiles_record: "Cc1cc(-c2ccnc(NC(=O)C3CC3)c2)ccc1CNC(=O)c1cn(C(C)(C)C)nn1"
  pIC50: "6.30 to 7.00"
- smiles_record: "Cc1c([C@@H](C)NC(=O)c2noc(C(C)(C)C)n2)ccc(-c2ccnc(NC(=O)C3CC3)c2)c1F"
  pIC50: "5.00 to 6.30"
- smiles_record: "Cc1c(CNC(=O)c2cnc(C(C)(C)C)o2)ccc(-c2ccnc(NC(=O)C3CC3)c2)c1F"
  pIC50: "5.00 to 6.30"
- smiles_record: "Cc1c(CNC(=O)c2noc(C(C)(C)C)n2)cc(F)c(-c2ccnc(NC(=O)C3CC3)c2)c1F"
  pIC50: "5.00 to 6.30"
- smiles_record: "Cc1c(CNC(=O)c2nn(C(C)(C)C)cc2F)ccc(-c2ccnc(NC(=O)C3CC3)c2)c1F"
  pIC50: "5.00 to 6.30"

Complete the entry with pIC50 for CC(C)(C)c1noc(C(=O)N[C@@H]2CCCCc3cc(-c4ccnc(NC(=O)C5CC5)c4)ccc32)n1
≥ 7.00

Complete the entry with pIC50 for CC(C)(C)c1noc(C(=O)N[C@@H]2CCCCc3cc(-c4ccnc(NC(=O)[C@@H]5C[C@H]5C(F)(F)F)c4)ccc32)n1
5.00 to 6.30
